target: Heat shock factor protein 1 (Mus musculus, UniProt P38532); test: inhibition of MG132-induced HSE-luciferase signal, confirmation, cell-based, NIH3T3, luminescence, dose retest (AID 2382); type: functional;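 note: NIH3T3 fibroblasts with HSF1-driven luciferase reporter stressed by proteasome inhibitor MG132; luminescence from HSF1-driven luciferase expression after 8 hours of MG132 stress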
Sequence (P38532 whole entry): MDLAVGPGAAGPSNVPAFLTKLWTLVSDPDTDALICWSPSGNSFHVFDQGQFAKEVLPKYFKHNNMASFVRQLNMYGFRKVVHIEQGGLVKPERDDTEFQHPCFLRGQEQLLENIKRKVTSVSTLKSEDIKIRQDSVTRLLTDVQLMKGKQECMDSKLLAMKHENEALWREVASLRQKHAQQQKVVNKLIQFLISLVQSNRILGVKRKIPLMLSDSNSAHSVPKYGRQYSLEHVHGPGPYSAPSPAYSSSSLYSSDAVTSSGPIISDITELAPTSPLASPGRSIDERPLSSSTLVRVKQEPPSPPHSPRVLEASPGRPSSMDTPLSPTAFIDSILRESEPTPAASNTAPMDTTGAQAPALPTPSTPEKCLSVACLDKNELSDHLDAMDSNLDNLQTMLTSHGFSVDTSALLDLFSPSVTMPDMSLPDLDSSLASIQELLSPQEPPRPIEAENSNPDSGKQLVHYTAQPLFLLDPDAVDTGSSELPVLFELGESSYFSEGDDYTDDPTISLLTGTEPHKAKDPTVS
Activity calls are given as the source filed them. Cut-off read from the data, not from the text of the source: actives have a measured EC50 and inactives only a lower limit.
Exercise: state measured EC50 for each of the compounds provided.

Task item: Need EC50 of COc1ccc2nc(O)c(CN(Cc3cccnc3)S(=O)(=O)c3ccccc3F)cc2c1 , thanks.
Reply: 6.06 µM (active)

Task item: Need EC50 of COCC(C)NC(=O)c1ccc2nc(-c3ccccc3)c(-c3ccccc3)nc2c1 (stereo not drawn) , thanks.
Reply: > 195 µM (not active)

Task item: Please look up its EC50: CCOC(=O)/C(=C\c1ccc(OC(F)F)cc1)C1=Nn2c(nnc2-c2ccc(Cl)cc2)SC1
Reply: 6.62 µM (active)
